Values were extracted from PubChem BioAssay.

- method.summary: basal 3T3-L1 adipocyte mitochondrial potential changes, profiling panel, cell-based, JC-1 fluorescence, 3T3-L1 adipocytes, 24 h, 100 nL compound (AID 1168); further: test concentration not given here
- assay.context: JC-1 mitochondrial fluorescence, higher = more signal, called active from +8 up or from −8 down
Would you mind telling me the reported z-score of each entry?
Write the number on its own, no unit after it.

Tell me the measured z-score of CCCC[C@@H](O)C1=C(C)Cn2c(=O)n(-c3ccccc3)c(=O)n2[C@H]1CO , please.
0.276

What about this compound? [N-]=[N+]=NCc1ccccc1[C@H]1OC(c2ccc(OCCCO)cc2)=N[C@@]1(Cc1ccccc1N=[N+]=[N-])C(N)=O
0.199

What about this compound? COC(=O)C(CC#Cc1ccc2c(c1)[C@]1(C(=O)N2)[C@H](C(=O)N2CCCCCCC2)[C@H]2C(=O)O[C@H](c3ccccc3)[C@H](c3ccccc3)N2[C@@H]1c1ccc(OCCO)cc1)C(=O)OC
-2.32

What about this compound? CN1C(=O)C2CC=C(C3=CCO[C@@H]3[C@H]3CCCN3S(=O)(=O)c3ccccc3[N+](=O)[O-])CC2C1=O (some centres not stated)
-0.655

What about this compound? CC(C)N1C(=O)[C@@]2(Cc3ccccc31)c1ccccc1C(=O)N(Cc1ccccc1C(F)(F)F)[C@H]2c1ccc(CO)cc1
0.109

What about this compound? O=C(O)C1=CC[C@H]2C(=O)N(c3ccccc3)C(=O)[C@@H]12
-0.162

What about this compound? COc1ccc([Si](C)(C)[C@@H]2[C@@H](CC(=O)N(CCO)Cc3ccccc3)O[C@]3(C(=O)N(Cc4cccc(I)c4)c4ccccc43)[C@H]2C)cc1
1.5

What about this compound? COCCCNC(=O)[C@@]1(Cc2ccccc2I)c2ccccc2C(=O)N(Cc2ccccc2OC)[C@H]1c1ccc(CO)cc1
-0.217

What about this compound? O=C1O[C@@H](c2ccccc2)[C@@H](c2ccccc2)N2[C@@H](c3ccccc3OCCO)[C@]3(C(=O)Nc4ccc(C#CC5(O)CCCCCC5)cc43)[C@@H](C(=O)N3CCCCCCC3)[C@H]12
0.644

What about this compound? C=CCN1C(=O)[C@@]2(O[C@@H](CCO)[C@H]([Si](C)(C)c3ccc(OC)cc3)[C@H]2C)c2cc(N3CCCCC3=O)ccc21
-0.0545

What about this compound? CCCCC(=C=CC[C@H](O)c1cccc(OCCO)c1)C[C@H](O)c1cc(Cl)cc(Cl)c1O
0.309

What about this compound? COC(=O)C(CC#Cc1ccc2c(c1)[C@]1(C(=O)N2)[C@H](C(N)=O)[C@H]2C(=O)O[C@H](c3ccccc3)[C@H](c3ccccc3)N2[C@@H]1c1ccccc1OCCO)C(=O)OC
4.3

----------
- method.summary: small-molecule microarray binders of probe aCHRDL2, primary screen, biochemical, biotinylated probe, 635/667 nm fluorescence (AID 1100)
- assay.context: higher = more signal
value.type: composite z-score
Write the number on its own, no unit after it.

Tell me the measured composite z-score of C[N+](C)(C)CCCC[C@@H]1NC(=O)[C@H]2C[C@@H](C(=O)O)[C@@H](c3ccc(O)cc3)N2C1=O , please.
0.149

What about this compound? O=C1C2C=CC(C(O)C3CCCCC3)N(Nc3ccccc3F)C2C(=O)N1c1ccccc1 (stereo unspecified)
0.95

What about this compound? C[C@]1(C(=O)NC2CC2)c2ccccc2C(=O)N(Cc2cc(F)cc(C(F)(F)F)c2)[C@H]1c1ccc(CO)cc1
0.87

What about this compound? COC(=O)C(CC#Cc1ccc2c(c1)[C@]1(C(=O)N2)[C@H](c2ccccc2OCCO)N2[C@H](c3ccccc3)[C@H](c3ccccc3)OC(=O)[C@H]2[C@@H]1C(=O)N1CCN(c2ncccn2)CC1)C(=O)OC
-0.145

What about this compound? COC(=O)[C@H]1N=C(c2ccc(OCCCO)cc2)O[C@H]1c1ccccc1N=[N+]=[N-]
1.34

What about this compound? CC(C)c1ccc(NN2C(C(O)C3=C[C@H]4C[C@@H](C3)C4(C)C)C=CC3C(=O)N(c4ccccc4)C(=O)C32)cc1 (stereo partly specified)
0.665

What about this compound? CC(=O)NCCCC[C@@H]1NC(=O)[C@H]2C[C@@H](C(=O)O)[C@@H](c3cccc(OCCO)c3)N2C1=O
0.237

What about this compound? CCN1C(=O)C2CC(=O)C3C(CN(S(=O)(=O)c4ccc(C)cc4)C3c3ccc(C)cc3)C2C1=O (stereo unspecified)
0.882

What about this compound? CN1C2C=C(c3ccc(CO)cc3)C(C3C(=O)N(C(N)=O)C(=O)C32)C1C1CC1 (stereo unspecified)
0.0427

What about this compound? [N-]=[N+]=NCc1ccccc1[C@H]1OC(c2ccc(OCCCO)cc2)=N[C@@]1(Cc1ccccc1N=[N+]=[N-])C(N)=O
0.879

What about this compound? COC(=O)c1ccc(OC)c(/C=C\CC(OC(=O)c2ccncc2)c2ccccc2)c1 (stereo unspecified)
-0.43

What about this compound? C[C@]1(C(=O)NCC(F)(F)F)c2ccccc2C(=O)N(Cc2cc(C(F)(F)F)cc(C(F)(F)F)c2)[C@H]1c1ccc(CO)cc1
0.543

What about this compound? CC[C@H]1C2=C3C(CC[C@H]4C(OCc5ccc(F)cc5C(F)(F)F)OC[C@](C)([C@@H]34)N(C(=O)OC(C)(C)C)C2)C(COC(C)=O)C1COC(C)=O (stereo partly specified)
0.971

What about this compound? O=C1O[C@H](c2ccccc2)[C@H](c2ccccc2)N2[C@H]1[C@@H](C(=O)O)[C@]1(C(=O)Nc3ccc(C#CC4(O)CCCCCC4)cc31)[C@H]2c1ccccc1OCCO
-0.351

What about this compound? C#CCN(C(=O)OC(C)(C)C)[C@H](CO)c1ccccc1
-0.601

What about this compound? O=C1c2ccccc2[C@@]2(Cc3ccccc3N(CC(F)(F)F)C2=O)[C@H](c2ccc(CO)cc2)N1Cc1ccccc1
-0.419

What about this compound? COCCOC(=O)N1C(=O)[C@@]2(c3ccccc31)[C@H](C(=O)Nc1nc3ccccc3s1)[C@H]1C(=O)O[C@H](c3ccccc3)[C@H](c3ccccc3)N1[C@@H]2c1ccccc1OCCO
0.653

What about this compound? O=C(NC1CC1)[C@@H]1c2ccccc2C(=O)N(C2CCCCC2)[C@H]1c1ccc(CO)cc1
0.989

What about this compound? CN1C(=O)C2C=CC(C(O)c3ccc(I)cc3)N(N(c3ccccc3)c3ccccc3)C2C1=O (stereo unspecified)
0.914

What about this compound? COC(=O)[C@H](Cc1ccccc1)N1CC(C)(OC)O[C@@H](Cc2ccccc2)[C@H]1/C=C/C1CC1 (stereo partly specified)
0.0982

What about this compound? O=C1C2C=CC(C(O)C3CC=CCC3)N(Nc3ccc([N+](=O)[O-])cc3)C2C(=O)N1c1ccccc1 (stereo unspecified)
1.03

----------
Would you mind telling me the reported composite z-score of each entry?
- method.summary: anti-His antibody binders, primary screen, artefact control for SMM control protein annotation, biochemical, small-molecule microarray, 635 nm fluorescence (AID 1128);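 further: score merges feature fluorescence with signal-to-noise for each printed compound spot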
- assay.context: anti-His Alexa647 antibody binding, higher = more signal
Write the number on its own, no unit after it.

Tell me the measured composite z-score of CCc1cccc(NC(=O)O[C@H]2[C@H](OC(=O)Nc3ccccc3-c3ccccc3)[C@H](OC(=O)Nc3ccccc3-c3ccccc3)[C@@H](OC)O[C@@H]2CO)c1 , please.
0.979

What about this molecule? O=C1C2C=CC(C(O)c3ccccn3)N(Nc3ccc([N+](=O)[O-])cc3)C2C(=O)N1c1ccccc1 (stereo not given)
0.344

What about this molecule? C=C1C(=O)C=C2CN(C(=O)c3ccccc3)[C@@](Cc3ccc(F)cc3)(C(=O)OC)[C@@H]12
1

What about this molecule? OCCCc1cc[n+](Cc2cc3c(cc2Br)OCO3)cc1
-0.874

What about this molecule? C=CCN1C(=O)[C@]2(O[C@H](CCO)[C@@H]([Si](C)(C)c3ccc(OC)cc3)[C@@H]2C)c2cc(N3C(=O)c4ccccc4Oc4ccccc43)ccc21
0.309

What about this molecule? COc1ccc([Si](C)(C)[C@H]2[C@H](CCO)O[C@@]3(C(=O)N(Cc4ccccc4)c4ccc(NC(=O)[C@H](C)O)cc43)[C@@H]2C)cc1
0.779

What about this molecule? COc1ccc(C(=O)Nc2ccc(CN3C(=O)[C@]4(O[C@H](CC(=O)N(CCO)Cc5ccccc5)[C@@H]([Si](C)(C)c5ccc(OC)cc5)[C@@H]4C)c4ccccc43)cc2)cc1
0.122

What about this molecule? CO[C@H]1O[C@H](CO)[C@@H](OC(=O)CCc2ccccc2)[C@@H]2OC(=O)[C@@H](Cc3ccc4ccccc4c3)C/C=C/C[C@H](Cc3ccc4ccccc4c3)C(=O)O[C@@H]12
0.0781

What about this molecule? CN(C)CCCCNC(=O)[C@H]1C[C@H]2C(=O)N[C@@H](CCCCN(C)C)C(=O)N2[C@H]1c1ccc(O)cc1
1.01

What about this molecule? COCCOC(=O)N1C(=O)[C@@]2(c3cc(C#CCC(C(=O)OC)C(=O)OC)ccc31)[C@H](C(N)=O)[C@H]1C(=O)O[C@H](c3ccccc3)[C@H](c3ccccc3)N1[C@@H]2c1ccccc1OCCO
0.737

What about this molecule? O=C1NC(=O)C2C1C=CC(C(O)c1ccc(F)cc1)N2Nc1ccc(Cl)cc1Cl (stereo not given)
1.97

What about this molecule? CCCCN1CC=CC23O[C@@H]4C=CCCOC(=O)C4[C@H]2C(=O)N(CCO)[C@@H]3C1=O (stereo not given in full)
-1.17

What about this molecule? CC(C)N1C(=O)[C@@]2(Cc3ccccc31)c1ccccc1C(=O)N(Cc1ccccc1)[C@H]2c1ccc(CO)cc1
2.84

What about this molecule? O=C1C2C=CC(C(O)C(c3ccccc3)c3ccccc3)N(Nc3ccccc3F)C2C(=O)N1c1ccccc1 (stereo not given)
1.65

What about this molecule? CC1C2C(CCCO)=CC(C3C(=O)N(C(N)=O)C(=O)C23)N1Cc1cccc(OC(F)(F)F)c1 (stereo not given)
0.632

What about this molecule? O=C1NC(=O)C2C1C=CC(C(O)C(c1ccccc1)c1ccccc1)N2Nc1ccccn1 (stereo not given)
2.42

What about this molecule? CC(C)C[C@@H]1NC(=O)[C@@H]2C[C@H](C(=O)NCCCCCNC(=O)CS)[C@H](c3ccc(O)cc3)N2C1=O
2.52

What about this molecule? CCOC(=O)C[C@H]1[C@H](OC(=O)c2ccc(-c3ccccc3)cc2)[C@@H](NC(=O)c2ccc(-c3ccccc3)cc2)c2cc(OCCCO)ccc2N1C(=O)c1ccccc1
0.0004

What about this molecule? O=C1NC(=O)C2C1C=CC(C(O)C1CCCCC1)N2Nc1ccccn1 (stereo not given)
0.279

What about this molecule? C=C(CCCC)C(=O)CC[C@@H](OC(C)=O)c1ccc(OCCO)cc1
1.51
